- Tested on: HCT-116
- testMethodNotes: Cytotoxicity against human HCT116 cells by SRB assay
- Assay type: functional, cell-based
pIC50: −log10 of the molar value.
Could you label it condition met if measured pIC50 is 8 or higher, and condition not met otherwise?

COc1ccc2c3c(c4cc(OC)c(O)cc4c2c1)CC1CCCN1C3 (stereo unspecified): condition not met
COc1ccc2c3c(c4cc(OC)c(OC)cc4c2c1)CC1CCCN1C3 (stereo not drawn) [(+/-)-ANTOFINE]: condition not met
COc1cc2c3c(c4ccc(O)cc4c2cc1OC)CN1CCCC1C3 (stereo unspecified): condition met
COc1ccc2c3c(c4cc(OC)c(OC(C)C)cc4c2c1)CC1CCCN1C3 (stereo unspecified): condition not met
COc1cc2c3c(c4ccccc4c2cc1OC)CN1CCCC1C3 (stereo unspecified): condition not met

Kindly review the next molecule as well.
Task: Answer whether pIC50 of COc1cc2c3c(c4ccc(OC(C)C)cc4c2cc1OC)CN1CCCC1C3 (stereo unspecified) is greater than or equal to 8.
Result: condition not met

Ref: ChEMBL document CHEMBL1146265
